The values you see were collected from ChEMBL document CHEMBL1961873.

In this section, each of the compounds is paired with its reported inhibition.
Molecular target: Tyrosine-protein kinase receptor TYRO3 (Homo sapiens);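 further: reported percentages are averaged inhibition values of TYRO3 kinase activity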
Settings: at 0.1 µM

// below: answered compounds
smiles_structure=Fc1ccc(-c2ncn(C3CCNCC3)c2-c2ccnc(Oc3ccccc3)n2)cc1 value_observed=1.92%
smiles_structure=COc1cccc(-n2ncc3c(N/N=C/c4ccncc4)ncnc32)c1 value_observed=8.97%
smiles_structure=COc1cccc(COc2cc(-n3cnc4ccccc43)sc2C(N)=O)c1 value_observed=-0.84%
smiles_structure=NS(=O)(=O)c1ccc(N/C=C2\C(=O)Nc3ccc4ncsc4c32)cc1 value_observed=3.07%
smiles_structure=Cc1cc(-c2ccco2)cc(C)c1/C=C/c1cncc(-c2nn[nH]n2)c1 value_observed=0.37%
smiles_structure=NS(=O)(=O)c1ccc(-c2ccc3c(NC(=O)C4CC4)n[nH]c3c2)cc1 value_observed=3.34%
smiles_structure=Nc1nonc1-c1nc2cnccc2n1C1CCCCC1 value_observed=-1.27%
smiles_structure=NC(=O)c1sc(-n2cnc3cc(C(F)(F)F)ccc32)cc1OCc1ccccc1Br value_observed=1.7%
smiles_structure=COc1cc(C=NNc2ncnc3c2cnn3Cc2ccccc2)ccc1O value_observed=-1.07%
smiles_structure=CCn1c(-c2nonc2N)nc2c(C#CC(C)(C)O)ncc(OC[C@@H]3CCCN3)c21 value_observed=-1.01%

Considering CCn1c(-c2nonc2N)nc2c(C#CC(C)(C)O)ncc(OCC3CCNCC3)c21 , its inhibition with Tyrosine-protein kinase receptor TYRO3 (Homo sapiens) was recorded as 2.77%

Considering CCn1c(-c2nonc2N)nc2c(C#CCN)ncc(OCCCN)c21 , its inhibition with Tyrosine-protein kinase receptor TYRO3 (Homo sapiens) was recorded as -0.44%

====

Test system: Proto-oncogene tyrosine-protein kinase receptor Ret (Homo sapiens), P07949 [Y791F]
Sequence (P07949 whole entry Y791F): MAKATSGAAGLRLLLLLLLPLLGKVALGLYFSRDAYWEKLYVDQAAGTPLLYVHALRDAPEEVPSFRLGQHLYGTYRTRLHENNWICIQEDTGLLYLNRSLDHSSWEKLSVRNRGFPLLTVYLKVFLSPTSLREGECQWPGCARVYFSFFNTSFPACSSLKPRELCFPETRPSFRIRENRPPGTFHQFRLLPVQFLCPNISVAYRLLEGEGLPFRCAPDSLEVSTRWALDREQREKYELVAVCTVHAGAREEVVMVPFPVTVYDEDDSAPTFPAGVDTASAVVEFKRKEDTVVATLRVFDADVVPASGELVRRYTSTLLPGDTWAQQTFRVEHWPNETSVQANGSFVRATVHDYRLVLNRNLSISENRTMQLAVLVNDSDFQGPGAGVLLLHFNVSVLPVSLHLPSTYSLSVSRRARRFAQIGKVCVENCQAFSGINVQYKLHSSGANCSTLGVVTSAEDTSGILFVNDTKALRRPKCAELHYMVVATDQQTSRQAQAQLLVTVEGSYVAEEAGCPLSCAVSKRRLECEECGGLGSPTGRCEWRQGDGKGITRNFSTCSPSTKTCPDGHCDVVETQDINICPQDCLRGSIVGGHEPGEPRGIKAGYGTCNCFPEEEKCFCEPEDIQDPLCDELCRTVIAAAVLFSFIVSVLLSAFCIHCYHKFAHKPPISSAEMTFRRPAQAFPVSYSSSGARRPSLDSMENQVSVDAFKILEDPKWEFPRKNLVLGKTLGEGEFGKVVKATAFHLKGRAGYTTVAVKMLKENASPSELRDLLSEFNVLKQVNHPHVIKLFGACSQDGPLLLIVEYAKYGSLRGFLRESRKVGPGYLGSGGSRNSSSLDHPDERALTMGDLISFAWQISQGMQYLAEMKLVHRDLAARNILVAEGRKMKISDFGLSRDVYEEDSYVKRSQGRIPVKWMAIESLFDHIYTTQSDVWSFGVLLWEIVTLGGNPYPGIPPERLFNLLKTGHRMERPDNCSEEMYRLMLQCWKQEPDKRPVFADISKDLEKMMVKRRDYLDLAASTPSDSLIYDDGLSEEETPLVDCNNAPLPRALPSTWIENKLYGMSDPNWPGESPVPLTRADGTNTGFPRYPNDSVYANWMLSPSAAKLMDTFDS
Conditions: at 1 µM
In this section, each of the molecules is paired with its reported inhibition.
Numbers only; they are read as %.

smiles_structure=CCn1c(-c2nonc2N)nc2c(C#CC(C)(C)O)ncc(OC[C@@H]3CCCN3)c21 value_observed=28.5
smiles_structure=CCn1c(-c2nonc2N)nc2c(C#CCN)ncc(OCCCN)c21 value_observed=15.8
smiles_structure=COc1cc(C=NNc2ncnc3c2cnn3Cc2ccccc2)ccc1O value_observed=28.4
smiles_structure=COc1cccc(COc2cc(-n3cnc4ccccc43)sc2C(N)=O)c1 value_observed=11.6
smiles_structure=CCn1c(-c2nonc2N)nc2c(C#CC(C)(C)O)nc(O[C@@H](CN)c3ccccc3)cc21 value_observed=80.3

molecule NS(=O)(=O)c1ccc(-c2ccc3c(NC(=O)C4CC4)n[nH]c3c2)cc1 , inhibition observed: 5.85

molecule NS(=O)(=O)c1ccc(N/C=C2\C(=O)Nc3ccc4ncsc4c32)cc1 , inhibition observed: 69

molecule COc1cccc(-n2ncc3c(N/N=C/c4ccncc4)ncnc32)c1 , inhibition observed: 65.9

====

Biological target: Cytoplasmic tyrosine-protein kinase BMX (Homo sapiens) (UniProt P51813)
Sequence (P51813 whole entry): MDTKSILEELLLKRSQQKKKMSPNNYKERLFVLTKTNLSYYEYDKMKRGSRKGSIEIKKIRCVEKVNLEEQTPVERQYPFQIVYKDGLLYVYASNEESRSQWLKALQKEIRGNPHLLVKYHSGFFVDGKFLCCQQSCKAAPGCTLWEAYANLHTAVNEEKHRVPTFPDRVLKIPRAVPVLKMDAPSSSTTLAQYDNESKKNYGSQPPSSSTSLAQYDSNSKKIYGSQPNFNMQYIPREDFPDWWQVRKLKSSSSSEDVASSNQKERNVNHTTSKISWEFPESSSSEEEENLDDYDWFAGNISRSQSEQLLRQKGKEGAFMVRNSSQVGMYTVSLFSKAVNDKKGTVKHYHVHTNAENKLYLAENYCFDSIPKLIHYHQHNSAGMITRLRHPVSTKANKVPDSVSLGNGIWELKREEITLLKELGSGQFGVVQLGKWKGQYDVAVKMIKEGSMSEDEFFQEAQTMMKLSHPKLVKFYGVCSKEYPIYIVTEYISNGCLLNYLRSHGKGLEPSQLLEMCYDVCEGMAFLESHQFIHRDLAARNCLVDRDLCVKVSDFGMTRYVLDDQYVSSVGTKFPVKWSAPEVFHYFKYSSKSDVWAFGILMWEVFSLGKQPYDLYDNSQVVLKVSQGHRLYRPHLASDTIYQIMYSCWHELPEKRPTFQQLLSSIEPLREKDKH
Settings: at 0.1 µM
Description: GSK_PKIS: BMX mean inhibition at 0.1 uM [Nanosyn]
Readout Type: inhibition (%)
Numbers only; they are read as %.

// below: answered molecules
smiles_structure=CCn1c(-c2nonc2N)nc2c(C#CCN)ncc(OCCCN)c21 value_observed=-0.45
smiles_structure=NS(=O)(=O)c1ccc(-c2ccc3c(NC(=O)C4CC4)n[nH]c3c2)cc1 value_observed=4.98
smiles_structure=Cc1cc(-c2ccco2)cc(C)c1/C=C/c1cncc(-c2nn[nH]n2)c1 value_observed=0.7
smiles_structure=COc1cc2c(cc1Nc1nc(Nc3ccsc3C(N)=O)c3cc[nH]c3n1)N(C(=O)CN(C)C)CCC2 value_observed=0.79
smiles_structure=CCn1c(-c2nonc2N)nc2c(C#CC(C)(C)O)ncc(OCC3CCNCC3)c21 value_observed=-4.33

molecule NC(=O)c1sc(-n2cnc3cc(C(F)(F)F)ccc32)cc1OCc1ccccc1Br , inhibition observed: -0.71

molecule COc1cccc(COc2cc(-n3cnc4ccccc43)sc2C(N)=O)c1 , inhibition observed: -0.68

molecule CCn1c(-c2nonc2N)nc2c(C#CC(C)(C)O)nc(O[C@@H](CN)c3ccccc3)cc21 , inhibition observed: 2.29
